Numbers sourced from the supplement of paper PMC11246515.

Listing: total protein half-life in vivo of selected sequences
Assay: total protein half-life in vivo (active degradation + dilution); higher = more stable protein
Details: E. coli NCM3722 delta-clpP delta-lon delta-hslV; growth: N-lim chemostat; doubling time 6 h
measured.metric: total protein half-life in vivo (h)

MATAKKITIHDVALAAGVSVSTVSLVLSGKGRISTATGERVNAAIEELGFVRNRQASALRGGQSGVIGLIVRDLSAPFYAELTAGLTEALEAQGRMVFLLHGGKDGEQLAQRFSLLLNQGVDGVVIAGAAGSSDDLRRMAEEKAIPVIFASRASYLDDVDTVRPDNMQAAQLLTEHLIRNGHQRIAWLGGQSSSLTRAERVGGYCATLLKFGLPFHSDWVLECTSSQKQAAEAITALLRHNPTISAVVCYNETIAMGAWFGLLKAGRQSGESGVDRYFEQQVSLAAFTDATPTTLDDIPVTWASTPARELGITLADRMMQKITHEETHSRNLIIPARLIAAK = 6.29
MSQLTHINAAGEAHMVDVSAKAETVREARAEAFVTMRSETLAMIIDGRHHKGDVFATARIAGIQAAKRTWDLIPLCHPLMLSKVEVNLQAEPEHNRVRIETLCRLTGKTGVEMEALTAASVAALTIYDMCKAVQKDMVIGPVRLLAKSGGKSGDFKVEADD [P0A738] = 5.29
MVSSFTSAPRSGFYYFAQGWKLVSQPGIRRFVILPLLVNILLMGGAFWWLFTQLDVWIPTLMSYVPDWLQWLSYLLWPLAVISVLLVFGYFFSTIANWIAAPFNGLLAEQLEARLTGATPPDTGIFGIMKDVPRIMKREWQKFAWYLPRAIVLLILYFIPGIGQTVAPVLWFLFSAWMLAIQYCDYPFDNHKVPFKEMRTALRTRKITNMQFGALTSLFTMIPLLNLFIMPVAVCGATAMWVDCYRDKHAMWR [P0A6J3] = 6.46

----------
Test: total protein half-life in vivo (active degradation + dilution); higher = more stable protein
Conditions: wild type E. coli NCM3722; growth: P-lim chemostat; doubling time 12 h
Note: every record was labeled by where its total protein half-life in vivo sits among lower range (below 7 h), middle range (7 h to below 10 h), upper range (10 h or more)

MLILISPAKTLDYQSPLTTTRYTLPELLDNSQQLIHEARKLTPPQISTLMRISDKLAGINAARFHDWQPDFTPANARQAILAFKGDVYTGLQAETFSEDDFDFAQQHLRMLSGLYGVLRPLDLMQPYRLEMGIRLENARGKDLYQFWGDIITNKLNEALAAQGDNVVINLASDEYFKSVKPKKLNAEIIKPVFLDEKNGKFKIISFYAKKARGLMSRFIIENRLTKPEQLTGFNSEGYFFDEDSSSNGELVFKRYEQR [P0A8I3] = lower range
MMSTTLFKDFTFEAAHRLPHVPEGHKCGRLHGHSFMVRLEITGEVDPHTGWIIDFAELKAAFKPTYERLDHHYLNDIPGLENPTSEVLAKWIWDQVKPVVPLLSAVMVKETCTAGCIYRGE = upper range
MEKLRVGIVFGGKSAEHEVSLQSAKNIVDAIDKSRFDVVLLGIDKQGQWHVSDASNYLLNADDPAHIALRPSATSLAQVPGKHEHQLIDAQNGQPLPTVDVIFPIVHGTLGEDGSLQGMLRVANLPFVGSDVLASAACMDKDVTKRLLRDAGLNIAPFITLTRANRHNISFAEVESKLGLPLFVKPANQGSSVGVSKVTSEEQYAIAVDLAFEFDHKVIVEQGIKGREIECAVLGNDNPQASTCGEIVLTSDFYAYDTKYIDEDGAKVVVPAAIAPEINDKIRAIAVQAYQTLGCAGMARVDVFLTPENEVVINEINTLPGFTNISMYPKLWQASGLGYTDLITRLIELALERHAADNALKTTM [P0A6J8] = upper range
MNPIVINRLQRKLGYTFNHQELLQQALTHRSASSKHNERLEFLGDSILSYVIANALYHRFPRVDEGDMSRMRATLVRGNTLAELAREFELGECLRLGPGELKSGGFRRESILADTVEALIGGVFLDSDIQTVEKLILNWYQTRLDEISPGDKQKDPKTRLQEYLQGRHLPLPTYLVVQVRGEAHDQEFTIHCQVSGLSEPVVGTGSSRRKAEQAAAEQALKKLELE [P0A7Y0] = upper range
MCTTCGCGEGNLYIEGDEHNPHSAFRSAPFAPAARPKMKITGIKAPEFTPSQTEEGDLHYGHGEAGTHAPGMSQRRMLEVEIDVLDKNNRLAERNRARFAARKQLVLNLVSSPGSGKTTLLTETLMRLKDSVPCAVIEGDQQTVNDAARIRATGTPAIQVNTGKGCHLDAQMIADAAPRLPLDDNGILFIENVGNLVCPASFDLGEKHKVAVLSVTEGEDKPLKYPHMFAAASLMLLNKVDLLPYLNFDVEKCIACAREVNPEIEIILISATSGEGMDQWLNWLETQRCA [P0AAN3] = middle range
MLDLFKAIGLGLVVLLPLANPLTTVALFLGLAGNMNSAERNRQSLMASVYVFAIMMVAYYAGQLVMDTFGISIPGLRIAGGLIVAFIGFRMLFPQQKAIDSPEAKSKSEELEDEPSANIAFVPLAMPSTAGPGTIAMIISSASTVRQSSTFADWVLMVAPPLIFFLVAVILWGSLRSSGAIMRLVGKGGIEAISRLMGFLLVCMGVQFIINGILEIIKTYH [P0AEY1] = upper range
MSDTNYAVIYDLHSHTTASDGCLTPEALVHRAVEMRVGTLAITDHDTTAAIAPAREEISRSGLALNLIPGVEISTVWENHEIHIVGLNIDITHPLMCEFLAQQTERRNQRAQLIAERLEKAQIPGALEGAQRLAQGGAVTRGHFARFLVECGKASSMADVFKKYLARGKTGYVPPQWCTIEQAIDVIHHSGGKAVLAHPGRYNLSAKWLKRLVAHFAEHHGDAMEVAQCQQSPNERTQLAALARQHHLWASQGSDFHQPCPWIELGRKLWLPAGVEGVWQLWEQPQNTTEREL = lower range
MSIRFARKADCAAIAEIYNHAVLYTAAIWNDQTVDADNRIAWFEARTLAGYPVLVSEENGVVTGYASFGDWRSFDGFRHTVEHSVYVHPDHQGKGLGRKLLSRLIDEARDCGKHVMVAGIESQNQASLHLHQSLGFVVTAQMPQVGTKFGRWLDLTFMQLQLDERTEPDAIG = upper range
MSNTDASGEKRVTGTSERREQIIQRLRQQGSVQVNDLSALYGVSTVTIRNDLAFLEKQGIAVRAYGGALICDSTTPSVEPSVEDKSALNTAMKRSVAKAAVELIQPGHRVILDSGTTTFEIARLMRKHTDVIAMTNGMNVANALLEAEGVELLMTGGHLRRQSQSFYGDQAEQSLQNYHFDMLFLGVDAIDLERGVSTHNEDEARLNRRMCEVAERIIVVTDSSKFNRSSLHKIIDTQRIDMIIVDEGIPADSLEGLRKAGVEVILVGE [P0ACK2] = middle range
MSITLSDSAAARVNTFLANRGKGFGLRLGVRTSGCSGMAYVLEFVDEPTPEDIVFEDKGVKVVVDGKSLQFLDGTQLDFVKEGLNEGFKFTNPNVKDECGCGESFHV [P0AAC8] = lower range
MENYLIDNLDRGILEALMGNARTAYAELAKQFGVSPGTIHVRVEKMKQAGIITGARIDVSPKQLGYDVGCFIGIILKSAKDYPSALAKLESLDEVTEAYYTTGHYSIFIKVMCRSIDALQHVLINKIQTIDEIQSTETLIVLQNPIMRTIKP [P0ACI6] = upper range
MDLNTLISQYGYAALVIGSLAEGETVTLLGGVAAHQGLLKFPLVVLSVALGGMIGDQVLYLCGRRFGGKLLRRFSKHQDKIERAQKLIQRHPYLFVIGTRFMYGFRVIGPTLIGASQLPPKIFLPLNILGAFAWALIFTTIGYAGGQVIAPWLHNLDQHLKHWVWLILVVVLVVGVRWWLKRRGKKKPDHQA = upper range

----------
Assay: total protein half-life in vivo (active degradation + dilution); higher = more stable protein
Conditions: E. coli NCM3722 delta-clpP delta-lon delta-hslV; growth: N-lim chemostat; doubling time 6 h
measured.metric: total protein half-life in vivo

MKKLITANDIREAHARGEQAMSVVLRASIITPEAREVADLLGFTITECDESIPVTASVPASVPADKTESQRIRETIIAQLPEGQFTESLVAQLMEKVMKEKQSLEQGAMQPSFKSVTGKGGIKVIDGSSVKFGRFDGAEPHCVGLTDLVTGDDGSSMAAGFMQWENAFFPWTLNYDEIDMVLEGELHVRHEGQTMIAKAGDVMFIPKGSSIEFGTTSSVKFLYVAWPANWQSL = 5.08 h
MLAFCRSSLKSKKYIIILLALAAIAGLGTHAAWSSNGLPRIDNKTLARLAQQHPVVVLFRHAERCDRSTNQCLSDKTGITVKGTQDARELGNAFSADIPDFDLYSSNTVRTIQSATWFSAGKKLTVDKRLLQCGNEIYSAIKDLQSKAPDKNIVIFTHNHCLTYIAKDKRDATFKPDYLDGLVMHVEKGKVYLDGEFVNH = > 8 h
MQEIMQFVGRHPILSIAWIALLVAVLVTTFKSLTSKVKVITRGEATRLINKEDAVVVDLRQRDDFRKGHIAGSINLLPSEIKANNVGELEKHKDKPVIVVDGSGMQCQEPANALTKAGFAQVFVLKEGVAGWAGENLPLVRGK [P0AG27] = 5.92 h
MKCPVCHQGEMVSGIKDIPYTFRGRKTVLKGIHGLYCVHCEESIMNKEESDAFMAQVKAFRASVNAETVAPEFIVKVRKKLSLTQKEASEIFGGGVNAFSRYEKGNAQPHPSTIKLLRVLDKHPELLNEIR = 4.78 h
MNKHTEHDTREHLLATGEQLCLQRGFTGMGLSELLKTAEVPKGSFYHYFRSKEAFGVAMLERHYAAYHQRLTELLQSGEGNYRDRILAYYQQTLNQFCQHGTISGCLTVKLSAEVCDLSEDMRSAMDKGARGVIALLSQALENGRENHCLTFCGEPLQQAQVLYALWLGANLQAKISRSFEPLENALAHVKNIIATPAV = 5.12 h
MSETAKKVIVGMSGGVDSSVSAWLLQQQGYQVEGLFMKNWEEDDGEEYCTAAADLADAQAVCDKLGIELHTVNFAAEYWDNVFELFLAEYKAGRTPNPDILCNKEIKFKAFLEFAAEDLGADYIATGHYVRRADVDGKSRLLRGLDSNKDQSYFLYTLSHEQIAQSLFPVGELEKPQVRKIAEDLGLVTAKKKDSTGICFIGERKFREFLGRYLPAQPGKIITVDGDEIGEHQGLMYHTLGQRKGLGIGGTKEGTEEPWYVVDKDVENNILVVAQGHEHPRLMSVGLIAQQLHWVDREPFTGTMRCTVKTRYRQTDIPCTVKALDDDRIEVIFDEPVAAVTPGQSAVFYNGEVCLGGGIIEQRLPLPV = 4.81 h
MHCPFCFAVDTKVIDSRLVGEGSSVRRRRQCLVCNERFTTFEVAELVMPRVVKSNDVREPFNEEKLRSGMLRALEKRPVSSDDVEMAINHIKSQLRATGEREVPSKMIGNLVMEQLKKLDKVAYIRFASVYRSFEDIKEFGEEIARLED [P0A8D0] = 6.05 h
MQLTSFTDYGLRALIYMASLPEGRMTSISEVTDVYGVSRNHMVKIINQLSRAGYVTAVRGKNGGIRLGKPASAIRIGDVVRELEPLSLVNCSSEFCHITPACRLKQALSKAVQSFLTELDNYTLADLVEENQPLYKLLLVE [P0AF63] = 7.13 h
